- System: Italian ryegrass (Lolium multiflorum)
- PROCEDURE_TEXT: Test A preemergence, visual plant response rating
- Format: in vivo
- CONDITION_DETAILS: 125 g ai/ha, preemergence; 0 to 100 scale, 0 no effect, 100 complete control

{"COMPOUND": "CO/N=C(/c1ccccc1F)c1c(O)c(C)nn(C)c1=O [Compound 62]", "Ryegrass, Italian plant response rating": 10}
{"COMPOUND": "CO/N=C(\\c1cccc(C#N)c1)c1c(O)c(C)nn(C)c1=O", "Ryegrass, Italian plant response rating": 0}
{"COMPOUND": "C#CCO/N=C(/c1c(O)c(C)nn(C)c1=O)c1cccc2ccccc12", "Ryegrass, Italian plant response rating": 90}
{"COMPOUND": "CCO/N=C(/c1c(O)c(Cl)nn(C)c1=O)c1cccc2ccccc12", "Ryegrass, Italian plant response rating": 0}
{"COMPOUND": "C#CCO/N=C(/c1c(O)c(C)nn(C)c1=O)c1cc(Br)cc2ccccc12", "Ryegrass, Italian plant response rating": 100}
{"COMPOUND": "CO/N=C(\\c1cccc(S(C)(=O)=O)c1)c1c(O)c(C)nn(C)c1=O", "Ryegrass, Italian plant response rating": 0}
{"COMPOUND": "CO/N=C(/c1ccccc1Cl)c1c(O)c(C)nn(C)c1=O", "Ryegrass, Italian plant response rating": 10}
{"COMPOUND": "CON=C(c1cccc(C(F)(F)F)c1)c1c(O)c(C)nn(C)c1=O", "Ryegrass, Italian plant response rating": 0}
{"COMPOUND": "CON=C(c1cc(C)cs1)c1c(O)c(C)nn(C)c1=O (mixture of isomers)", "Ryegrass, Italian plant response rating": 0}
{"COMPOUND": "CON=C(c1c(O)c(C)nn(C)c1=O)c1cccc2ccc(Cl)cc12", "Ryegrass, Italian plant response rating": 30}
{"COMPOUND": "CO/N=C(\\c1cccc(C(F)(F)F)c1)c1c(O)c(C)nn(C)c1=O", "Ryegrass, Italian plant response rating": 0}
{"COMPOUND": "CO/N=C(\\c1c(C)cccc1F)c1c(O)c(C)nn(C)c1=O", "Ryegrass, Italian plant response rating": 0}
{"COMPOUND": "CCO/N=C(\\c1c(O)c(C)nn(C)c1=O)c1ccc(F)c2ccccc12", "Ryegrass, Italian plant response rating": 100}
{"COMPOUND": "CON=C(c1c(O)c(C)nn(C)c1=O)c1csc2ccccc12 (single isomer, unassigned)", "Ryegrass, Italian plant response rating": 0}
{"COMPOUND": "CCCO/N=C(/c1c(O)c(C)nn(C)c1=O)c1cccc2ccccc12", "Ryegrass, Italian plant response rating": 20}
{"COMPOUND": "CON=C(c1c(O)c(C)nn(C)c1=O)c1cccc2cc(F)ccc12", "Ryegrass, Italian plant response rating": 30}
{"COMPOUND": "Cc1nn(C)c(=O)c(/C(=N/OC(C)C)c2ccc(F)c3ccccc23)c1O", "Ryegrass, Italian plant response rating": 90}
{"COMPOUND": "CON=C(c1cc(Cl)ccc1Cl)c1c(O)c(C)nn(C)c1=O", "Ryegrass, Italian plant response rating": 80}

###

- Test system: Italian ryegrass (Lolium multiflorum)
- PROCEDURE_TEXT: Test A postemergence, visual plant response rating
- Type: in vivo
- CONDITION_DETAILS: Postemergence, 125 g ai/ha; 0 to 100 scale (0 no effect, 100 complete control)
Quick reference: Ryegrass, Italian plant response rating of the listed items.

{"COMPOUND": "CCc1ccccc1C(=NOC)c1c(O)c(C)nn(C)c1=O", "Ryegrass, Italian plant response rating": 80}
{"COMPOUND": "C#CCO/N=C(\\c1c(O)c(C)nn(C)c1=O)c1ccc(F)c2ccccc12", "Ryegrass, Italian plant response rating": 100}
{"COMPOUND": "C#CCn1nc(C)c(O)c(C(=NOC)c2cccc(Cl)c2)c1=O (mixture of isomers)", "Ryegrass, Italian plant response rating": 20}
{"COMPOUND": "CON=C(c1cccc(C(F)(F)F)c1Cl)c1c(O)c(C)nn(C)c1=O [Compound 103]", "Ryegrass, Italian plant response rating": 0}
{"COMPOUND": "CON=C(c1c(O)c(C)nn(C)c1=O)c1cccc2ccsc12 (single isomer, unassigned)", "Ryegrass, Italian plant response rating": 0}
{"COMPOUND": "CON=C(c1c(O)c(C)nn(C)c1=O)c1cccc2cc(Br)ccc12 [Compound 96]", "Ryegrass, Italian plant response rating": 80}
{"COMPOUND": "CO/N=C(/c1ccccc1Cl)c1c(O)c(C)nn(C)c1=O", "Ryegrass, Italian plant response rating": 30}
{"COMPOUND": "CON=C(c1c(O)c(C)nn(C)c1=O)c1cccc2cc(F)ccc12", "Ryegrass, Italian plant response rating": 80}
{"COMPOUND": "CCC(=O)Oc1c(C)nn(C)c(=O)c1C(=NOC)c1cccc2ccccc12", "Ryegrass, Italian plant response rating": 40}
{"COMPOUND": "CCO/N=C(\\c1ccccc1C)c1c(O)c(C)nn(C)c1=O", "Ryegrass, Italian plant response rating": 60}
{"COMPOUND": "CO/N=C(/c1ccsc1C)c1c(O)c(C)nn(C)c1=O", "Ryegrass, Italian plant response rating": 0}
{"COMPOUND": "CO/N=C(\\c1c(O)c(Cl)nn(C)c1=O)c1cccc2ccccc12", "Ryegrass, Italian plant response rating": 0}
{"COMPOUND": "CCCc1ccccc1/C(=N\\OC)c1c(O)c(C)nn(C)c1=O", "Ryegrass, Italian plant response rating": 50}
{"COMPOUND": "CON=C(c1cccc(C2CC2)c1)c1c(O)c(C)nn(C)c1=O", "Ryegrass, Italian plant response rating": 60}
{"COMPOUND": "CO/N=C(\\c1cccc(C)c1)c1c(O)c(C)nn(C)c1=O", "Ryegrass, Italian plant response rating": 80}
{"COMPOUND": "CON=C(c1cccc(C(F)(F)F)c1Cl)c1c(O)c(C)nn(C)c1=O [Compound 102]", "Ryegrass, Italian plant response rating": 0}
{"COMPOUND": "CON=C(c1c(O)c(C)nn(C)c1=O)c1cccc2ccoc12", "Ryegrass, Italian plant response rating": 10}
{"COMPOUND": "C=CCc1ccccc1C(=NOC)c1c(O)c(C)nn(C)c1=O", "Ryegrass, Italian plant response rating": 60}
{"COMPOUND": "CCCO/N=C(/c1c(O)c(C)nn(C)c1=O)c1cccc2ccccc12", "Ryegrass, Italian plant response rating": 30}
